// values below are reported log10 of EC50
- Test system: A549
- assay-details: Cytotoxic concentration required to inhibit 50% cell growth in A-549 lung carcinoma cell lines
- Assay type: functional
- condition-summary: Homo sapiens, read-out: ED50 (the source's name)
Give log10 of EC50, with EC50 taken in µM.

# entry-smiles, data-value
rows = [
    ("COc1cc(/C=C/c2ccc(Br)cc2)cc(OC)c1OC", 0.81),
    ("COc1ccc(NCc2cc(OC)cc(OC)c2)cc1", 0.76),
    ("COc1cc(/C=C\\c2ccc(OC(C)=O)cc2)cc(OC)c1OC", 0.23),
    ("COc1ccc(CNc2cc(OC)c(OC)c(OC)c2)cc1", -0.08),
]

Now look at this entry.
Query: Suppose we examine the molecule COc1ccc(/C=C\c2cc(OC)c(OC)c(OC)c2)c(Cl)c1 ; what log10 of EC50 value has been reported?
Response: -1.29

###

// values below are reported EC50
- Tested on: MCF7
- assay-details: Cytotoxic concentration required to inhibit 50% cell growth in MCF-7 breast carcinoma cell lines
- Assay type: functional
- condition-summary: Homo sapiens, read-out: ED50 (the source's name)
The figure you give is taken to be in µM; do not add the unit.

Recorded results for 2 molecules are shown here.
# entry-smiles, EC50 / µM
rows = [
    ("COc1cc(/C=C\\c2ccc(OC(C)=O)cc2)cc(OC)c1OC", 3),
    ("COc1ccc(NC(=O)c2cc(OC)c(OC)c(OC)c2)cc1", 12.2),
]

Query: Suppose we examine the molecule COc1cc(/C=C\c2ccc(Cl)cc2)cc(OC)c1OC ; what EC50 value has been reported?
Response: 0.18

Query: // next record COc1cc(/C=C/c2ccc(O)cc2)cc(OC)c1OC
Response: 18.6

###

- System: MCF7
- assay-details: Cytotoxic concentration required to inhibit 50% cell growth in MCF-7 breast carcinoma cell lines
- Type: functional
- condition-summary: Homo sapiens, read-out: ED50 (the source's name)
// values below are reported EC50
The figure you give is taken to be in µM; do not add the unit.

# entry-smiles, data-value
rows = [
    ("COc1ccccc1CCc1cc(OC)c(OC)c(OC)c1", 11.8),
]

Now look at this entry.
Query: Suppose we examine the molecule COc1ccccc1/C=C/c1cc(OC)c(OC)c(OC)c1 ; what EC50 value has been reported?
Response: 18

###

- Tested on: MCF7
- assay-details: Cytotoxic concentration required to inhibit 50% cell growth in MCF-7 breast carcinoma cell lines
- Type: functional
- condition-summary: Homo sapiens, read-out: ED50 (the source's name)
Define the label as yes (1) when EC50 is strictly less than 0.2 µM and as no (0) in all remaining cases.

# compound, assigned-category
rows = [
    ("COc1cc(OC)c(OC)cc1/C=C/c1cc(OC)c(OC)c(OC)c1", "no (0)"),
    ("COc1cccc(/C=C\\c2cc(OC)c(OC)c(OC)c2)c1", "yes (1)"),
    ("COc1cc(CCc2ccc(OC(C)=O)cc2)cc(OC)c1OC", "no (0)"),
]

Query: Does the reported EC50 of COc1cc(CCc2ccc(N(C)C)cc2)cc(OC)c1OC stay below 0.2 µM?
Response: yes (1)

Query: // next record COc1ccc(C(=O)Nc2cc(OC)c(OC)c(OC)c2)cc1
Response: no (0)

Query: // next record COc1ccc(/C=C/c2ccccc2)c(OC)c1OC
Response: no (0)

Query: // next record COc1cc(/C=C\c2ccc(O[Si](C)(C)C(C)(C)C)cc2)cc(OC)c1OC
Response: no (0)

Query: // next record COc1cccc(/C=C/c2cc(OC)c(OC)c(OC)c2)c1
Response: no (0)

###

- System: A549
- assay-details: Cytotoxic concentration required to inhibit 50% cell growth in A-549 lung carcinoma cell lines
- Type: functional
- condition-summary: Homo sapiens, read-out: ED50 (the source's name)
value-kind: EC50

Query: Suppose we examine the compound COc1cc(/C=C\c2ccc(O)cc2)cc(OC)c1OC ; what EC50 value has been reported?
Response: 12.7 µM

Query: // next record COc1cc(OC)c(/C=C/c2ccccc2)c(OC)c1
Response: > 25 µM

Query: // next record COc1cc(/C=C/c2ccc(N(C)C)cc2)cc(OC)c1OC
Response: 0.0061 µM

Query: // next record COc1cc(/C=C/c2ccc([N+](=O)[O-])cc2)cc(OC)c1OC
Response: > 25 µM

Query: // next record COc1cc(/C=C\c2ccc(Br)cc2)cc(OC)c1OC
Response: 0.011 µM

Query: // next record COc1cc(CCc2cccnc2)cc(OC)c1OC
Response: 12.2 µM

Query: // next record COc1cccc2c1C(=O)c1c(O)c3c(c(O)c1C2=O)C[C@@](O)(C(=O)CO)C[C@@H]3O[C@H]1C[C@H](N)[C@H](O)[C@H](C)O1
Response: 0.029 µM

Query: // next record COc1cc(/C=C/c2ccc(OC(C)=O)cc2)cc(OC)c1OC
Response: 9.7 µM

Query: // next record COc1cc(/C=C/c2ccccc2)cc(OC)c1OC
Response: > 25 µM

Query: // next record COc1cc(CCc2cc(OC)c(OC)c(OC)c2)cc(OC)c1OC
Response: > 25 µM

Query: // next record COc1ccc(/C=C/c2cc(OC)c(OC)c(OC)c2)cc1
Response: 1.18 µM

Query: // next record COc1ccc(C(=O)Nc2cc(OC)c(OC)c(OC)c2)cc1OC
Response: > 25 µM

Query: // next record COc1ccc(C(=O)Nc2cc(OC)cc(OC)c2)cc1
Response: > 25 µM

Query: // next record COc1cc(CCc2ccc(N)cc2)cc(OC)c1OC
Response: 12.2 µM

Query: // next record COc1cc(CCc2ccc(N(C)C)cc2)cc(OC)c1OC
Response: 0.083 µM

Query: // next record COc1cc(CCc2ccc(NC(C)=O)cc2)cc(OC)c1OC
Response: > 25 µM

Query: // next record COc1ccc(/C=C/c2cc(OC)c(OC)c(OC)c2)c(Cl)c1
Response: > 25 µM

Query: // next record COc1cc(OC)c(OC)cc1/C=C/c1cc(OC)c(OC)c(OC)c1
Response: > 25 µM

Query: // next record COc1cc(/C=C/c2ccc(Cl)cc2)cc(OC)c1OC
Response: > 25 µM

Query: // next record COc1cc(NC(=O)c2cc(OC)c(OC)c(OC)c2)cc(OC)c1OC
Response: > 25 µM

Query: // next record COc1cccc(CCc2cc(OC)c(OC)c(OC)c2)c1
Response: 11.7 µM

Query: // next record COc1ccc(NC(=O)c2cc(OC)cc(OC)c2)cc1
Response: 9.02 µM

Query: // next record COc1ccc(/C=C/c2ccccc2)c(OC)c1OC
Response: > 25 µM

Query: // next record COc1ccccc1CCc1cc(OC)c(OC)c(OC)c1
Response: 13.5 µM

###

- Tested on: MCF7
- assay-details: Cytotoxic concentration required to inhibit 50% cell growth in MCF-7 breast carcinoma cell lines
- Format: functional
- condition-summary: Homo sapiens, read-out: ED50 (the source's name)
pEC50: −log10 of the molar value.
value-kind: pEC50

Recorded results for 5 compounds are shown here.
# entry-smiles, pEC50
records = [
    ("COc1cc(CCc2ccc(O)cc2)cc(OC)c1OC", "< 4.60"),
    ("COc1cc(CCc2cc(OC)c(OC)c(OC)c2)cc(OC)c1OC", "< 4.60"),
    ("COc1cc(/C=C/c2ccccc2)cc(OC)c1OC", "< 4.60"),
    ("COc1ccc(CCc2ccccc2)c(OC)c1OC", "< 4.60"),
    ("COc1cc(CCc2ccc(OC)c(OC)c2OC)cc(OC)c1OC", "< 4.60"),
]

Now look at this entry.
Query: Suppose we examine the compound COc1cc(NC(=O)c2cc(OC)c(OC)c(OC)c2)cc(OC)c1OC ; what pEC50 value has been reported?
Response: < 4.60

###

- assayed-system: Tubulin (Bos taurus, UniProt Q6B856+Q862L2+Q862F3)
- assay-details: Ability to inhibit Tubulin polymerization in Bovine brain
- Format: functional, tissue-based
// values below are reported IC50

Recorded results for 2 compounds are shown here.
# entry-smiles, IC50
rows = [
    ("COc1cc(/C=C/c2ccc(N(C)C)cc2)cc(OC)c1OC", "> 50 µM"),
    ("COc1ccc(CNc2cc(OC)c(OC)c(OC)c2)cc1", "> 50 µM"),
]

Now look at this entry.
Query: Suppose we examine the compound COc1ccc(/C=C/c2cc(OC)c(OC)c(OC)c2)cc1 ; what IC50 value has been reported?
Response: > 50 µM
